Biological target: ornithine 4,5-aminomutase (OAM) (Acetoanaerobium sticklandii, UniProt E3PY95, E335A)
Assay: biochemical
pKi: −log10 of the molar value.
ENDPOINT: pKi

compound="NCCC(N)C(=O)O (racemic)" subject_of_test="ornithine 4,5-aminomutase (OAM) (Acetoanaerobium sticklandii, UniProt E3PY95, E335A)" measurement=4.73

###

Molecular target: ornithine 4,5-aminomutase (OAM) (Acetoanaerobium sticklandii, UniProt E3PY95)
Construct: recombinant, expressed from pET-OAMH2 vector and purified; holoenzyme with PLP and AdoCbl; Glu338 (TIM barrel) and Lys629 lie in OraE
Sequence (E3PY95 whole entry): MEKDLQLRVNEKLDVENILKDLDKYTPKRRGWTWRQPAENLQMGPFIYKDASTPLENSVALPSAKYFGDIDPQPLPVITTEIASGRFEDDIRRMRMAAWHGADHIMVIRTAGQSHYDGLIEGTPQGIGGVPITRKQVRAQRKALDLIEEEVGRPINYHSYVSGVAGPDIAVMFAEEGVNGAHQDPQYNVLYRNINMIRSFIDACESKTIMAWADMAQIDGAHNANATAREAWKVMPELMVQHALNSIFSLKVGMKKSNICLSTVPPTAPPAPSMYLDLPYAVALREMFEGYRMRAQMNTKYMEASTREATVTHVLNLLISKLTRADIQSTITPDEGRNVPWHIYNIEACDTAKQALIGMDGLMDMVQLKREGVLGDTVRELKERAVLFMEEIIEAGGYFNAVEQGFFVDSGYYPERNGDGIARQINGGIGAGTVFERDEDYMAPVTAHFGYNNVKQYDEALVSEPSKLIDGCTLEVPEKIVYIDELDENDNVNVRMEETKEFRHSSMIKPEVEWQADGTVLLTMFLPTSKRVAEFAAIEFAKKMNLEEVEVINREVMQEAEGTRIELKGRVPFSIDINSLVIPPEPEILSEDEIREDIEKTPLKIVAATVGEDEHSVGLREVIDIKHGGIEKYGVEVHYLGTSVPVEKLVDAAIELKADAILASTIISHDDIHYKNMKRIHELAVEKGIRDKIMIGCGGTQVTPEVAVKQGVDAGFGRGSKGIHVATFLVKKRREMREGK
Sequence (E3PY96 whole entry partner): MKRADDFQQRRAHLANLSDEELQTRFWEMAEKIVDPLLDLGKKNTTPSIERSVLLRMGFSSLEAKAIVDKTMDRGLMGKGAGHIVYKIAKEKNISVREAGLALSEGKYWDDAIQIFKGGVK
Assay: anaerobic coupled DAPDH assay, NADH at […] nm
Conditions: read-out: Ki(DAB)
ENDPOINT: Ki (µM)

molecule="NCCC(N)C(=O)O (racemic) [D,L-2,4-diaminobutyric acid]" subject_of_test="ornithine 4,5-aminomutase (OAM) (Acetoanaerobium sticklandii, UniProt E3PY95)" measurement=5.2
